# Organism: Homo sapiens
# test-summary: Inhibition of human topoisomerase 2 at 100 uM
Active and inactive are the calls of the source. The calls are words filed in the database; no cut-off is given here.
measurement-type: Activity

Consider the worked cases shown below.
Report Activity for `c1ccc(-c2cc(-c3ccoc3)cc(-c3ccco3)n2)nc1` please. Active

Report Activity for `c1cncc(-c2cc(-c3ccncc3)nc(-c3cccs3)c2)c1` please. Active

Report Activity for `c1coc(-c2cc(-c3ccoc3)cc(-c3ccncc3)n2)c1` please. Active

Report Activity for `c1cc(-c2cc(-c3ccoc3)cc(-c3ccsc3)n2)ccn1` please. Active

Report Activity for `c1csc(-c2cc(-c3ccoc3)cc(-c3ccncc3)n2)c1` please. Active

Report Activity for `c1cc(-c2cc(-c3ccncc3)nc(-c3ccsc3)c2)ccn1` please. Active

The record that follows has no Activity shown yet.
Report Activity for `c1coc(-c2cc(-c3ccsc3)cc(-c3ccncc3)n2)c1` please. Active

src = ChEMBL document CHEMBL1143676
